Assay: in vivo
Design: species or system mice
Details: male, SCID, mouse, iv, 730 kBq, total radioactivity, Tumor/Kidneys ratio
Residues, ends and D or L forms follow the SMILES beside them. *: point of attachment. DOTA = O=C(O)CN1CCN(CC(=O)O)CCN(CC(=O)*)CCN(CC(=O)O)CC1; X1 = Cc1ccc(CCCC(=O)NCCOCCOCCOCCOCC(=O)*)cc1; βAla = NCCC(=O)O
parameter measured: tissue to tissue ratio at 72 h
Reply: number alone, nothing else.

Incoming: What does the data say about its tissue to tissue ratio at 72 h? Entry: CC[C@H](C)[C@H](NC(=O)[C@H](Cc1ccc(O)cc1)NC(=O)[C@@H]1CCCN1C(=O)[C@H](CCCNC(=N)N)NC(=O)[C@H](CCCNC(=N)N)NC(=O)[C@H](CCCCNC(=O)COCCOCCOCCOCCNC(=O)CCCc1ccc(C)cc1)NC(=O)CCNC(=O)CCNC(=O)CCNC(=O)CN1CCN(CC(=O)O)CCN(CC(=O)O)CCN(CC(=O)O)CC1)C(=O)N[C@@H](CC(C)C)C(=O)O [[^177Lu]Lu-DT14D, metal not drawn] ({DOTA-βAla-βAla-βAla}-K(X1)RRPYIL-OH)
Outgoing: 2.26

* * *

Assay: in vivo
Design: species or system mice
Details: male, SCID, mouse, iv, total radioactivity, Biodistribution, AsPC-1 Tumor
Residues, ends and D or L forms follow the SMILES beside them. *: point of attachment. DOTA = O=C(O)CN1CCN(CC(=O)O)CCN(CC(=O)*)CCN(CC(=O)O)CC1; X1 = Cc1ccc(CCCC(=O)NCCOCCOCCOCCOCC(=O)*)cc1; βAla = NCCC(=O)O
parameter measured: tissue uptake at 24 h (%ID/g)
Just the number please, in %ID/g, no unit attached.

Incoming: # lookup: tissue uptake at 24 h of CC[C@H](C)[C@H](NC(=O)[C@H](Cc1ccc(O)cc1)NC(=O)[C@@H]1CCCN1C(=O)[C@H](CCCNC(=N)N)NC(=O)[C@H](CCCNC(=N)N)NC(=O)[C@H](CCCCNC(=O)COCCOCCOCCOCCNC(=O)CCCc1ccc(C)cc1)NC(=O)CCNC(=O)CCNC(=O)CCNC(=O)CN1CCN(CC(=O)O)CCN(CC(=O)O)CCN(CC(=O)O)CC1)C(=O)N[C@@H](CC(C)C)C(=O)O [[^111In]In-DT14D, metal not drawn] ({DOTA-βAla-βAla-βAla}-K(X1)RRPYIL-OH)
Outgoing: 2.82

* * *

Experiment: in vivo
Set-up: species or system mice
Settings: male, SCID, mouse, iv, total radioactivity, Tumor/Muscle ratio
Source text: The distribution of [^67Ga]Ga/[^111In]In/[^177Lu]Lu-DT14D was investigated in male severe combined immunodeficiency (SCID) mice (49 mice in total, 6 weeks of age on arrival date, 22 ± 4 g, NCSR “Demokritos” Animal House, Athens, Greece) bearing NTS1R-positive AsPC-1 xenografts in their flanks. […] The animals were euthanized at predetermined time intervals, dissected and blood samples, organs of interest, and tumors were collected, weighed, and counted in the gamma counter. […]
Residues, ends and D or L forms follow the SMILES beside them. *: point of attachment. DOTA = O=C(O)CN1CCN(CC(=O)O)CCN(CC(=O)*)CCN(CC(=O)O)CC1; X1 = Cc1ccc(CCCC(=O)NCCOCCOCCOCCOCC(=O)*)cc1; βAla = NCCC(=O)O
parameter measured: tissue to tissue ratio at 1 h
Number, no unit, nothing else.

Incoming: Give the measured tissue to tissue ratio at 1 h of CC[C@H](C)[C@H](NC(=O)[C@H](Cc1ccc(O)cc1)NC(=O)[C@@H]1CCCN1C(=O)[C@H](CCCNC(=N)N)NC(=O)[C@H](CCCNC(=N)N)NC(=O)[C@H](CCCCNC(=O)COCCOCCOCCOCCNC(=O)CCCc1ccc(C)cc1)NC(=O)CCNC(=O)CCNC(=O)CCNC(=O)CN1CCN(CC(=O)O)CCN(CC(=O)O)CCN(CC(=O)O)CC1)C(=O)N[C@@H](CC(C)C)C(=O)O [[^67Ga]Ga-DT14D, metal not drawn] ({DOTA-βAla-βAla-βAla}-K(X1)RRPYIL-OH) .
Outgoing: 10.1

* * *

Experiment: in vivo
Set-up: species or system mice
Conditions: male, SCID, mouse, iv, 40 pmol, total radioactivity, Tumor/Lungs ratio
Residues, ends and D or L forms follow the SMILES beside them. *: point of attachment. DOTA = O=C(O)CN1CCN(CC(=O)O)CCN(CC(=O)*)CCN(CC(=O)O)CC1; X1 = Cc1ccc(CCCC(=O)NCCOCCOCCOCCOCC(=O)*)cc1; βAla = NCCC(=O)O
parameter measured: tissue to tissue ratio at 72 h

Incoming: What value of tissue to tissue ratio at 72 h has been reported for the following compound? CC[C@H](C)[C@H](NC(=O)[C@H](Cc1ccc(O)cc1)NC(=O)[C@@H]1CCCN1C(=O)[C@H](CCCNC(=N)N)NC(=O)[C@H](CCCNC(=N)N)NC(=O)[C@H](CCCCNC(=O)COCCOCCOCCOCCNC(=O)CCCc1ccc(C)cc1)NC(=O)CCNC(=O)CCNC(=O)CCNC(=O)CN1CCN(CC(=O)O)CCN(CC(=O)O)CCN(CC(=O)O)CC1)C(=O)N[C@@H](CC(C)C)C(=O)O [[^177Lu]Lu-DT14D, metal not drawn] ({DOTA-βAla-βAla-βAla}-K(X1)RRPYIL-OH)
Outgoing: 9.66

* * *

Test: in vivo
Design: species or system mice
Details: male, SCID, mouse, iv, total radioactivity, Tumor/Spleen ratio
Residues, ends and D or L forms follow the SMILES beside them. *: point of attachment. DOTA = O=C(O)CN1CCN(CC(=O)O)CCN(CC(=O)*)CCN(CC(=O)O)CC1; X1 = Cc1ccc(CCCC(=O)NCCOCCOCCOCCOCC(=O)*)cc1; βAla = NCCC(=O)O
parameter measured: tissue to tissue ratio at 1 h

Incoming: Which tissue to tissue ratio at 1 h is listed for CC[C@H](C)[C@H](NC(=O)[C@H](Cc1ccc(O)cc1)NC(=O)[C@@H]1CCCN1C(=O)[C@H](CCCNC(=N)N)NC(=O)[C@H](CCCNC(=N)N)NC(=O)[C@H](CCCCNC(=O)COCCOCCOCCOCCNC(=O)CCCc1ccc(C)cc1)NC(=O)CCNC(=O)CCNC(=O)CCNC(=O)CN1CCN(CC(=O)O)CCN(CC(=O)O)CCN(CC(=O)O)CC1)C(=O)N[C@@H](CC(C)C)C(=O)O [[^67Ga]Ga-DT14D, metal not drawn] ({DOTA-βAla-βAla-βAla}-K(X1)RRPYIL-OH) ?
Outgoing: 4

* * *

Test: in vivo
Set-up: species or system mice
Conditions: male, SCID, mouse, iv, 730 kBq, total radioactivity, Tumor/Muscle ratio
Residues, ends and D or L forms follow the SMILES beside them. *: point of attachment. DOTA = O=C(O)CN1CCN(CC(=O)O)CCN(CC(=O)*)CCN(CC(=O)O)CC1; X1 = Cc1ccc(CCCC(=O)NCCOCCOCCOCCOCC(=O)*)cc1; βAla = NCCC(=O)O
parameter measured: tissue to tissue ratio at 48 h
Answer with a number only.

Incoming: For the compound CC[C@H](C)[C@H](NC(=O)[C@H](Cc1ccc(O)cc1)NC(=O)[C@@H]1CCCN1C(=O)[C@H](CCCNC(=N)N)NC(=O)[C@H](CCCNC(=N)N)NC(=O)[C@H](CCCCNC(=O)COCCOCCOCCOCCNC(=O)CCCc1ccc(C)cc1)NC(=O)CCNC(=O)CCNC(=O)CCNC(=O)CN1CCN(CC(=O)O)CCN(CC(=O)O)CCN(CC(=O)O)CC1)C(=O)N[C@@H](CC(C)C)C(=O)O [[^177Lu]Lu-DT14D, metal not drawn] ({DOTA-βAla-βAla-βAla}-K(X1)RRPYIL-OH) , what tissue to tissue ratio at 48 h is on record?
Outgoing: 39.2

* * *

Test: in vivo
Set-up: species or system mice
Details: male, SCID, mouse, iv, total radioactivity, Tumor/Spleen ratio
Residues, ends and D or L forms follow the SMILES beside them. *: point of attachment. DOTA = O=C(O)CN1CCN(CC(=O)O)CCN(CC(=O)*)CCN(CC(=O)O)CC1; X1 = Cc1ccc(CCCC(=O)NCCOCCOCCOCCOCC(=O)*)cc1; βAla = NCCC(=O)O
parameter measured: tissue to tissue ratio at 24 h

Incoming: # tissue to tissue ratio at 24 h lookup, item CC[C@H](C)[C@H](NC(=O)[C@H](Cc1ccc(O)cc1)NC(=O)[C@@H]1CCCN1C(=O)[C@H](CCCNC(=N)N)NC(=O)[C@H](CCCNC(=N)N)NC(=O)[C@H](CCCCNC(=O)COCCOCCOCCOCCNC(=O)CCCc1ccc(C)cc1)NC(=O)CCNC(=O)CCNC(=O)CCNC(=O)CN1CCN(CC(=O)O)CCN(CC(=O)O)CCN(CC(=O)O)CC1)C(=O)N[C@@H](CC(C)C)C(=O)O [[^111In]In-DT14D, metal not drawn] ({DOTA-βAla-βAla-βAla}-K(X1)RRPYIL-OH)
Outgoing: 1.77
